The measurements presented in this section are drawn from patent EP1412028B1.

# Test system: Caco-2 cells
recorded-metric: EFFLUX LIMITED

1) O=C1CCCc2c1ccn2CCN1CCN(c2cccc(C(F)(F)F)c2)CC1    No
2) COc1ccccc1N1CCN(CCn2ccc3c2CCCC3=O)CC1    No
3) O=C1CCCc2c1ccn2CCCN1CCN(c2cccc(Cl)c2)CC1    No
4) COc1ccccc1N1CCN(CCCn2ccc3c2CCCC3=O)CC1    No

* * *

# System: male C-57 mice
# protocol-text: PCP disruption of pre-pulse inhibition (PPI) of the acoustic startle response
# Type: in vivo
# stated-conditions: Mus musculus, sc; read-out: PCP Disruption of Pre-pulse Inhibition - SC, 5pp ED50
Assign labels as follows, please: Y for ED50 below 2 mg/kg; N for ED50 equal to or exceeding 2 mg/kg.

1. O=C1CCCc2c1ccn2CCN1CCN(c2cccc(C(F)(F)F)c2)CC1 [NEO-359]    N
2. O=C1CCCc2c1ccn2CCN1CCN(c2cccc(Cl)c2)CC1 [NEO-376]    Y
3. O=C1CCCc2c1ccn2CCCN1CCN(c2cccc(C(F)(F)F)c2)CC1 [NEO-356]    N
4. O=C1CCCc2c1ccn2CCCN1CCN(c2cccc(Cl)c2)CC1 [NEO-363]    N
5. CN1CCN(C2=Nc3cc(Cl)ccc3Nc3ccccc32)CC1 [Clozapine, clozapine, reference compound]    N
6. O=C1CCCc2c1ccn2CCCN1CCN(c2ncccn2)CC1 [NEO-381]    Y
7. Cc1nc2n(c(=O)c1CCN1CCC(c3noc4cc(F)ccc34)CC1)CCCC2 [Risperidone, risperidone, reference compound]    Y
8. COc1ccccc1N1CCN(CCCn2ccc3c2CCCC3=O)CC1 [NEO-370]    Y
9. COc1ccccc1N1CCN(CCn2ccc3c2CCCC3=O)CC1 [NEO-377]    N
10. O=C1CCCc2c1ccn2CCCCN1CCN(c2cccc(C(F)(F)F)c2)CC1 [NEO-392]    Y
